Ref: paper doi:10.1101/2025.05.23.655772

Molecular target: T1, ubiquitin-specific protease 5, wild type (human, UniProt P45974 1-858)
T1 construct: ubiquitin-specific protease 5 (USP5), human; No removal of the His tag is described; also called USP5; USP5^WT; source: E. coli BL21 (DE3), purified (Ni-NTA, SEC)
T1 sequence (looked up): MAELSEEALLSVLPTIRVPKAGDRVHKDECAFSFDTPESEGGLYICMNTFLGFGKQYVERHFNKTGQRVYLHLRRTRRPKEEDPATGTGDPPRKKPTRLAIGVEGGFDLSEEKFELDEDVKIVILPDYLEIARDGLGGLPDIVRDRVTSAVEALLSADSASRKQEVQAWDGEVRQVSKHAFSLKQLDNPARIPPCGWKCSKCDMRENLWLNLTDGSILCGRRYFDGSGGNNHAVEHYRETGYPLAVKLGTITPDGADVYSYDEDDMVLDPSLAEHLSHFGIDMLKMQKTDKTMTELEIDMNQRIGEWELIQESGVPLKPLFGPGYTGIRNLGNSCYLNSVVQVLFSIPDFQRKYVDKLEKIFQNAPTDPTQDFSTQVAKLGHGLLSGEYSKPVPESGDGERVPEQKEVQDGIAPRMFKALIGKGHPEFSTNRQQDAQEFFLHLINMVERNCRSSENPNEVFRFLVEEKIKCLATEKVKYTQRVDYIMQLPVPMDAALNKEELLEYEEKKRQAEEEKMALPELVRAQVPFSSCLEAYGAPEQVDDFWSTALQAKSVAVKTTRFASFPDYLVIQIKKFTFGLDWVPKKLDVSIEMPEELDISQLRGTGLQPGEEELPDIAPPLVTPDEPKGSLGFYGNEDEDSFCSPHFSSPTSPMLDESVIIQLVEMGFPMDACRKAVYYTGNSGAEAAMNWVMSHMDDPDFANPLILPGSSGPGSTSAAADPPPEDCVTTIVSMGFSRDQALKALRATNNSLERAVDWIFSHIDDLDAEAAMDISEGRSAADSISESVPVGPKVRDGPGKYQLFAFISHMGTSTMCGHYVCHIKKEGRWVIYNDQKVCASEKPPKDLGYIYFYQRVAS
Assay: ITC; ITC200 at 298 K; 50 mM HEPES, 100 mM NaCl, 1 mM TCEP, pH 7.5; SDE2 construct or monoubiquitin titrated into USP5 (10-12 µM); duplicate
Details: both partners purified

binder: SDE2 N-terminal ubiquitin-like domain, SDE2UBL(1-77) (domain or fragment, human, UniProt Q6IQ49 1-77, looked up, Silencing Defective 2 (SDE2), human, residues 1-77 (ubiquitin-like domain ending in the Gly-Gly motif); source: E. coli BL21 (DE3), purified (Ni-NTA, SUMO protease cleavage, SEC); not shown: His, N-terminal, cleaved; SUMO, N-terminal, cleaved) MAEAAALVWIRGPGFGCKAVRCASGRCTVRDFIHRHCQDQNVPVENFFVKCNGALINTSDTVQHGAVYSLEPRLCGG
Kd, µM: 26.6
